Hello, the source for this data is PubChem BioAssay AID1224862, in case you need it.

- ASSAY DETAILS: Compound cytotoxicity measured by an ATP content assay as a counter-screen for lead compounds in human astrocytoma cell line (SNB-19)
- PROTOCOL CONDITIONS: SNB-19 astrocytoma viability, ATP luminescence; series mostly up to 46.1 µM
Results filed as inconclusive are left out. Active and inactive are the calls of the source. Calls come from the whole dose curve; as a rule, active = well fitted cell-killing curve with a large enough effect; inconclusive = small, poorly fitted or top-dose-only effect, or effect the other way; inactive = flat fitted curve, though single readings scatter.
QUANTITY KIND: Potency

# COMPOUND, Potency
data = [
    ("c1ccc(CCNc2nc(-c3ccccc3)cs2)cc1", "inactive"),
    ("O=c1[nH]nc(Sc2ncc([N+](=O)[O-])s2)n1-c1ccc2c(c1)OCCO2", "4.89 µM (active)"),
    ("CCOCCOC(=O)/C=C/c1ccc(OC)cc1", "inactive"),
    ("N#CC1(c2ccc(NC(=O)c3cccnc3NCc3ccncc3)cc2)CCCC1", "inactive"),
    ("CCCCCNC(=O)N1CCC(CN(Cc2ccc(Cl)cc2)Cc2ccc([N+](=O)[O-])s2)C1 (centres undefined)", "inactive"),
]

Provide Potency value for the following compound: "Cc1cccc(C#Cc2ccccc2)n1"
24.5 µM (active)
